Target: T1, human TREM2 (triggering receptor expressed on myeloid cells 2) (human) (UniProt Q9NZC2)
T1 sequence (looked up): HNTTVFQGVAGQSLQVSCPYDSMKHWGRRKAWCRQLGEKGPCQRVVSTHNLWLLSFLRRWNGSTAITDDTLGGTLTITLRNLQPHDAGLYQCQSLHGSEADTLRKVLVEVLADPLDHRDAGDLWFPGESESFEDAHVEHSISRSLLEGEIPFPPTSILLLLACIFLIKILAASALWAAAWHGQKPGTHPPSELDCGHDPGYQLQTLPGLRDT
Assay: 2nd screen, 100 nM Ab
propertyMeasured: Binding Signal (fold over 6E7 parental antibody) (fold)
Report the value in fold with no unit label.

>>> numericvalue("6E7 antibody affinity modulation variant V55 (antibody, V domains shown) VH: EVQLVQSGAEVKKPGESLKISCKGSGYSFTSYWIAWVRQMPGKGLEWMGIIYPGDSDTIYSPSHQGQVTISADKSISTAYLQWSSLKASDTAMYFCARQRTFYYDSSDYFDYWGQGTLVTVSS VL: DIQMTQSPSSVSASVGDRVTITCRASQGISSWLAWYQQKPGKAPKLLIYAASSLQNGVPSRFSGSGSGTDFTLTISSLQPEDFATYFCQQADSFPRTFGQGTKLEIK")
0.66
>>> numericvalue("6E7 antibody affinity modulation variant V21 (antibody, V domains shown) VH: EVQLVQSGAEVKKPGESLKISCKGSGYSFTSYWIAWVRQMPGKGLEWMGIIYPGDSDTRYSPSFQGQVTISADKSISTAYLQWSSLKASDTAMYFCARQRTFYYDSSDFFDYWGQGTLVTVSS VL: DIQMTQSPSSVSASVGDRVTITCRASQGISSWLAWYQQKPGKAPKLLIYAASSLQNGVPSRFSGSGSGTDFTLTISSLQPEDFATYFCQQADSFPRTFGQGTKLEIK")
0.68

stdin: Bench note: what Binding Signal (fold over 6E7 parental antibody) did 6E7 antibody affinity modulation variant V58 (antibody, V domains shown) VH: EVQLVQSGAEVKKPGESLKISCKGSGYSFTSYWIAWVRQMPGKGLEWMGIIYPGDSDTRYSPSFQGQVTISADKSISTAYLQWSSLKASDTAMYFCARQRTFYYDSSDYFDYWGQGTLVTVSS VL: DIQMTQSPSSVSASVGDRVTITCRASQGISSWLAWYQQKPGKAPKLLIYKASSLQNGVPSRFSGSGSGTDFTLTISSLQPEDFATYFCQQADSFPRTFGQGTKLEIK show?
stdout: 0.68

Data provenance is patent US20250019437A1.
